Tested on: ATS95
measurement protocol: qHTS profiling for inhibitors of Plasmodium falciparum proliferation (AID 504749);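 note: 0% = DMSO vehicle and full inhibition = artemisinin control; nearly all actives have a fitted effect of over 60% in size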
condition set: P. falciparum in erythrocytes, SYBR Green DNA, 72 h; series mostly up to 28.7 µM
Results filed as inconclusive are left out. Calls of active or inactive are those of the source. Calls come from the whole dose curve; as a rule, active = well fitted inhibition curve with a large enough effect; inconclusive = small, poorly fitted or top-dose-only effect; inactive = flat fitted curve, though single readings scatter.
Mark one answer only. Choices: 1 (active), -1 (inactive)

Example entries and their recorded answers appear below.
Incoming: Query: recorded result category for C[C@H](N)Cc1ccccc1 in this test
Outgoing: -1

Incoming: Query: recorded result category for CN1C2CCC1C(C(=O)O)C(OC(=O)c1ccccc1)C2 (configuration not stated) in this test
Outgoing: -1

Incoming: Query: recorded result category for CC(CO)NC(=O)C1C=C2c3cccc4[nH]cc(c34)CC2N(C)C1 (configuration not stated) in this test
Outgoing: -1

--- query ---
Incoming: Query: recorded result category for CC(=O)O[C@H]1C[C@H](O[C@H]2[C@@H](O)CC(O[C@H]3[C@@H](O)C[C@H](O[C@H]4CC[C@@]5(C)[C@H](CC[C@@H]6[C@@H]5CC[C@]5(C)[C@@H](C7=CC(=O)OC7)CC[C@]65O)C4)O[C@@H]3C)O[C@@H]2C)O[C@H](C)[C@H]1O[C@@H]1O[C@H](CO)[C@@H](O)[C@H](O)[C@H]1O (some centres not stated) in this test
Outgoing: -1

====

study system: Cytochrome P450 2D6 (Homo sapiens) (UniProt P10635)
Sequence (P10635 whole entry, looked up): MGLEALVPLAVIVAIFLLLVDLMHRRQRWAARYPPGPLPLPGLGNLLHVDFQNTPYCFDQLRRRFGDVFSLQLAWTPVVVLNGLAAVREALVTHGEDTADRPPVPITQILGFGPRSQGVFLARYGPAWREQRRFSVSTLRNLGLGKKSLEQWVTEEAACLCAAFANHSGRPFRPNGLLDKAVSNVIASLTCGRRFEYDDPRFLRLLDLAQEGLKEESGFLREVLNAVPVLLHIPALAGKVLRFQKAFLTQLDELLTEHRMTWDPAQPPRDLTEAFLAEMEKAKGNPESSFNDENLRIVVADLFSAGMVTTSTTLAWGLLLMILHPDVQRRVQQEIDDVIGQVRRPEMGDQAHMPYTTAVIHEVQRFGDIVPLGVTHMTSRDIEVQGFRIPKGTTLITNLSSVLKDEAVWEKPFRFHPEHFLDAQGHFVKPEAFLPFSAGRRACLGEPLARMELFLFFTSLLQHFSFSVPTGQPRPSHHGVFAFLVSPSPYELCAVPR
measurement protocol: qHTS Assay for Inhibitors and Substrates of Cytochrome P450 2D6 (AID 891); note: nearly all actives have a fitted effect of over 60% in size
condition set: recombinant CYP2D6, luciferin-ME EGE luminescence; series mostly up to 57.1 µM
Inconclusive results are not listed. The source made the active and inactive calls. The call rests on the fitted dose curve; in most records, active means well fitted inhibition curve with a large enough effect; inconclusive means small, poorly fitted or top-dose-only effect; inactive means no such curve, though single readings can be large or run the other way.
Mark one answer only. Choices: t for active, f for inactive

Incoming: Query: recorded result category for C[C@@]12CCC[C@](C)(C(=O)O)[C@@H]1CCc1ccc(O)cc12 in this test
Outgoing: f

Incoming: Query: recorded result category for C[C@@H]1CCC/C=C\[C@H]2C[C@H](O)C[C@@H]2[C@H](O)/C=C\C(=O)O1 in this test
Outgoing: f

Incoming: Query: recorded result category for COc1cc2c(cc1O)-c1c(O)c(OC)cc3c1[C@H](C2)N(C)CC3 in this test
Outgoing: t

Incoming: Query: recorded result category for COc1ccc2[nH]c3c(c2c1)CCN=C3C in this test
Outgoing: t

Incoming: Query: recorded result category for C[C@@]12CC[C@H]3[C@@H](CCC4=CC(=O)CC[C@]43C)[C@H]1CCC2=O in this test
Outgoing: f

Incoming: Query: recorded result category for c1ccc(CN2CCC3(CCc4ccccc43)CC2)cc1 in this test
Outgoing: t

***
Incoming: Query: recorded result category for C=CCO[C@@H](Cn1ccnc1)c1ccc(Cl)cc1Cl in this test
Outgoing: t

Incoming: Query: recorded result category for CCN(CC)c1ncnc2c1ncn2[C@@H]1O[C@@H](COP(=O)(O)OP(=O)(O)C(Br)(Br)P(=O)(O)O)[C@H](O)[C@H]1O in this test
Outgoing: t

Incoming: Query: recorded result category for COc1cc2c(cc1OC)[C@]13CCN4CC5=CCO[C@@H]6CC(=O)N2[C@@H]1[C@H]6[C@@H]5C[C@H]43 in this test
Outgoing: f

Incoming: Query: recorded result category for C=C[C@@H]1CN2CC[C@H]1C[C@H]2[C@@H](O)c1ccnc2ccccc12 in this test
Outgoing: t

Incoming: Query: recorded result category for CC[C@]1(O)C(=O)OCc2c1cc1n(c2=O)Cc2cc3ccccc3nc2-1 in this test
Outgoing: f

Incoming: Query: recorded result category for CC[C@H]1CN2CC[C@@H]1C[C@@H]2[C@H](O)c1ccnc2ccccc12 in this test
Outgoing: t

Incoming: Query: recorded result category for O=C1C[C@H]2OCCC=C3CN4CC[C@@]56c7ccccc7N1[C@@H]5[C@H]2[C@H]3C[C@@H]46 in this test
Outgoing: f

Incoming: Query: recorded result category for CCCCCC[C@H]1C(=O)O[C@@H](C)[C@H](NC(=O)c2cccc(NC=O)c2O)C(=O)O[C@@H](C)[C@@H]1OC(=O)CC(C)C in this test
Outgoing: f

Source listed as PubChem BioAssay (NCATS).
